Just for reference, patent US20230235047A1 is where these values come from.

# System: T1, human CLDN18.2 on cells (CHO-hCLDN18.2, HEK293-hCLDN18.2, KATO III-hCLDN18.2, DAN-G-hCLDN18.2, NUGC-4) (human, UniProt P56856-2 1-261)
# T1 construct: whole, on cells; NUGC-4 is used untransfected; also called human Claudin18.2
# Experiment summary: flow cytometry (FACS) on CHO-hCLDN18.2 cells, MFI against Log[Conc.(nM)]; EC50 from the table under the plot
Property name: EC50 (nM)
// return numeric value only (unit: nM, not printed)

In the examples that follow, each entry is paired with its recorded EC50.
1. 25C7 (antibody, human IgG1, kappa, V domains shown) VH: EVMLVESGGGLVQPGGSRKLSCAASGFTFSDYGMAWVRQAPGKGPEWVAFINNLAYSIYYVDTVTGRFTISRENAKDTLYLEMSSLRSEDTALYYCARFTTGNVMDYWGQGTSVTVSS VL: DIVMTQSPSSLTVTAGEKVTMTCKSSQSLLNGGNQKNYLTWYQQKPGQPPKLLIYWSSTRESGVPDRFTGSGSGTDFTLTITSVQAEDLAVYYCQNSYSYPLTFGSGTKLELKR = 13.6
2. 51H10 (antibody, human IgG1, kappa, V domains shown) VH: EVQLQQSVPELVKPGASVRMSCKASGYTFTKYIIQWVKQKPGQGLEWIAYINPYNDDTKYNEKFKGKATLTSDKSASTAYMELSSLTSEDSAVYYCATTYYGNSFPNWGQGTLVTVSA VL: DIVMTQSPSSLTVTAGERVTMTCKSSQSLLNSGNQKNYLTWYQQKPGQPPKLLIYWASTRESGVPDRFTGSGSGTDFTLTISSLQSEDLAVYFCQNDYSFPFTFGSGTKLEIKR = 7.51

[ask] I am curious: what EC50 value has been reported for 3G3 (antibody, human IgG1, kappa, V domains shown) VH: QVQLQQSGPQLVRPGASVKISCKASGYSFTTYWMHWVKQRPGQGLEWIGLIDPSDSETRLNQKFKDKATLTVDKSSSTAYMRLSSPTSEDSAVYYCASNRWLLGWGQGTLVTVSS VL: DIQMIQSPSSLTVTAGEKVTMSCKSSQSLLNSGNQKNYLTWYQQKPGQPPKLLIYWASTRESGVPDRFTGSGSGTDFTLTISSVQTEDLAVYYCQNDYSYPLTFGAGTKLEIKR ?
[reply] 9.75
